Values compiled from ChEMBL document CHEMBL4819144.

# subject_of_test: P2Y purinoceptor 14 (Homo sapiens, UniProt Q15391)
# Sequence (Q15391 whole entry): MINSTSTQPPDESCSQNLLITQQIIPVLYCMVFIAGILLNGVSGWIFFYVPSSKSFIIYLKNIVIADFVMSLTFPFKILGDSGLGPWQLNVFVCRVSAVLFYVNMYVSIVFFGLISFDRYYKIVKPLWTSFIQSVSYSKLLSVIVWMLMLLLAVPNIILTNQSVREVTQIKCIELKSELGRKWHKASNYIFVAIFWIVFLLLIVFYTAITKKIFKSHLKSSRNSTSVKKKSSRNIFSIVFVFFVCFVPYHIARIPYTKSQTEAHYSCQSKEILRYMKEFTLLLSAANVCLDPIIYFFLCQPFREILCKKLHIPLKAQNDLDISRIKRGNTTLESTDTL
# test_protocol: Agonist activity at human P2Y14 expressed in CHO cells
pEC50: −log10 of the molar value.
measurement_name: pEC50

[[record]]
structure = "O=c1ccn([C@@H]2O[C@H](COP(=O)(O)CP(=O)(O)O)[C@@H](O)[C@H]2O)c(=O)[nH]1"
result_value = 7.96


* * *

# subject_of_test: P2Y purinoceptor 14 (Homo sapiens)
# test_protocol: Binding affinity to human P2Y14 expressed in CHO cells
pIC50: −log10 of the molar value.
Below, each entry is listed alongside its reported pIC50.
measurement_name: pIC50

[[record]]
structure = "O=c1[nH]/c(=N/OCc2ccccc2)c(F)cn1[C@@H]1O[C@H](COP(=O)(O)CP(=O)(O)O)[C@@H](O)[C@H]1O"
subject_of_test = "P2Y purinoceptor 14 (Homo sapiens)"
measurement_name = "pIC50"
qual = "="
result_value = 4.67

[[record]]
structure = "O=c1[nH]/c(=N\\OCc2cccc(Cl)c2)ccn1[C@@H]1O[C@H](COP(=O)(O)CP(=O)(O)O)[C@@H](O)[C@H]1O"
subject_of_test = "P2Y purinoceptor 14 (Homo sapiens)"
measurement_name = "pIC50"
qual = "<"
result_value = 4.00

[[record]]
structure = "O=c1[nH]/c(=N\\OCc2ccc(Cl)cc2)ccn1[C@@H]1O[C@H](COP(=O)(O)CP(=O)(O)O)[C@@H](O)[C@H]1O"
subject_of_test = "P2Y purinoceptor 14 (Homo sapiens)"
measurement_name = "pIC50"
qual = "<"
result_value = 4.00

[[record]]
structure = "O=c1[nH]c(=O)n([C@@H]2O[C@H](COP(=O)(O)CP(=O)(O)O)[C@@H](O)[C@H]2O)cc1Cl"
subject_of_test = "P2Y purinoceptor 14 (Homo sapiens)"
measurement_name = "pIC50"
qual = "="
result_value = 4.78

[[record]]
structure = "O=c1[nH]/c(=N\\OCc2ccc(C(F)(F)F)cc2)ccn1[C@@H]1O[C@H](COP(=O)(O)CP(=O)(O)O)[C@@H](O)[C@H]1O"
subject_of_test = "P2Y purinoceptor 14 (Homo sapiens)"
measurement_name = "pIC50"
qual = "<"
result_value = 4.00

